Biological target: Ribosomal protein S6 kinase alpha-6 (Homo sapiens) (UniProt Q9UK32)
Sequence (Q9UK32 whole entry): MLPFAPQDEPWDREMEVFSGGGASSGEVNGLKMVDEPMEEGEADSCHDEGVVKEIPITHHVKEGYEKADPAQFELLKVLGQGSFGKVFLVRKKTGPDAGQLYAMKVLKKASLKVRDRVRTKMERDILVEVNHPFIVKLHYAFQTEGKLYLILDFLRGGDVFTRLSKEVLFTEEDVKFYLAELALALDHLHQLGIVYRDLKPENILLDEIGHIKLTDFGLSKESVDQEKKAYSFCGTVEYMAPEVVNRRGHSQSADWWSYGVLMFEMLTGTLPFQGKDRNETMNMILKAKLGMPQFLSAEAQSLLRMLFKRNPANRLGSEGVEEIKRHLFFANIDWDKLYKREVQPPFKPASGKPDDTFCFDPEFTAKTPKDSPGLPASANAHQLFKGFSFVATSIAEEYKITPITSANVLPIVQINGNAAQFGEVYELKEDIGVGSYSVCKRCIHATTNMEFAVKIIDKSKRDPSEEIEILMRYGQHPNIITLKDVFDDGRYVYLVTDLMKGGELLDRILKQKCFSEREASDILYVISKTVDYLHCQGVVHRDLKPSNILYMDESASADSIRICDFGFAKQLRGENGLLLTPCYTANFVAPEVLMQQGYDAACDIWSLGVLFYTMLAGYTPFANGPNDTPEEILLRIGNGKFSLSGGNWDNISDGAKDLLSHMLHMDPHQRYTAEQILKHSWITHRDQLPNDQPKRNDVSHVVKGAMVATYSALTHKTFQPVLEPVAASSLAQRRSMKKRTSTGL
Conditions: at 10 µM
Observation Type: residual activity

* CSc1nc(-c2ccc(F)cc2)c(-c2ccnc(NC(C)c3ccccc3)c2)[nH]1 (configuration not stated) | 69%
* CN(C)S(=O)(=O)c1ccc2c(c1)/C(=C/c1cc3c([nH]1)CCCC3)C(=O)N2 | 89%
* COc1ccc2c(c1)c(C1=C(c3c[nH]c4ccccc34)C(=O)NC1=O)cn2CCCN(C)C | 2%
* CC(C)[C@H](CO)Nc1nc(Nc2cc(N)cc(Cl)c2)c2ncn(C(C)C)c2n1 | 6%
* O=S(=O)(c1cccc2cnccc12)N1CCCNCC1 | 49%
* Nc1nc(Nc2ccc(S(N)(=O)=O)cc2)nn1C(=O)c1c(F)cccc1F | 2%
* CCCCc1c(-c2ccc(O)cc2)[nH]c2nccnc12 | 84%

* * *

Biological target: Serine/threonine-protein kinase TAO2 (Homo sapiens)
Sequence (whole entry): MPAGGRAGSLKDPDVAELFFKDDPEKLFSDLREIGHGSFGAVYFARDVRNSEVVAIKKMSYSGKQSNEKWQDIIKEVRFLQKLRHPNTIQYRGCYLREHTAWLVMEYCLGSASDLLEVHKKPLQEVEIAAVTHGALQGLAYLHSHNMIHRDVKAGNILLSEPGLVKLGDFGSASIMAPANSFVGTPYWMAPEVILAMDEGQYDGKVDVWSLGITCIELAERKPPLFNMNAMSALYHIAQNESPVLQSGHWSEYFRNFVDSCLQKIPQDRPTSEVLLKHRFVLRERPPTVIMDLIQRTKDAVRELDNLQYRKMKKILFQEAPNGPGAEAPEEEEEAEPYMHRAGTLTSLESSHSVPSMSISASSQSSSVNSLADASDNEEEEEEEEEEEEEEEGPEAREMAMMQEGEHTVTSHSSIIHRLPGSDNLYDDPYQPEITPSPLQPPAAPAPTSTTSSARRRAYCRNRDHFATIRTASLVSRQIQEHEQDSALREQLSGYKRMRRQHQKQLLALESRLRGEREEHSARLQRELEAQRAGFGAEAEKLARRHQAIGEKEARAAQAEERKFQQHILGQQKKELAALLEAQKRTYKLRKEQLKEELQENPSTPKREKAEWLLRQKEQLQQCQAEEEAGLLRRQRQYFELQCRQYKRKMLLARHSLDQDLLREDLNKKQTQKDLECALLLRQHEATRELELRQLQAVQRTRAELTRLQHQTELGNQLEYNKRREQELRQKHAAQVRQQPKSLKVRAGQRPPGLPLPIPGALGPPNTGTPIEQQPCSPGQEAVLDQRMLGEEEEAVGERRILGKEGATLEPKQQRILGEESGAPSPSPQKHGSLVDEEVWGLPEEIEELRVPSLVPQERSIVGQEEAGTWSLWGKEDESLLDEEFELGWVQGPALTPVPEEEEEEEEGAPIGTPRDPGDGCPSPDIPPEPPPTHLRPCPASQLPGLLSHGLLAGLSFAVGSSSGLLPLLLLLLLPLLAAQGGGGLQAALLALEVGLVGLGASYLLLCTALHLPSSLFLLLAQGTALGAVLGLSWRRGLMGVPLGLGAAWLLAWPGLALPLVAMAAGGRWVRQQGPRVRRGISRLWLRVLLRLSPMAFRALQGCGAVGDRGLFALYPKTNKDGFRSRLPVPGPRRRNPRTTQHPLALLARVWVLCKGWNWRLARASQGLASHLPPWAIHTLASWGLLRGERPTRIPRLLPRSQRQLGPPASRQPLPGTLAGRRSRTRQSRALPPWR
Details: at 10 µM
Observation Type: residual activity (%)

- CC(C)[C@H](CO)Nc1nc(Nc2cc(N)cc(Cl)c2)c2ncn(C(C)C)c2n1: 73
- CCCCc1c(-c2ccc(OC)cc2)[nH]c2nccnc12: 82
- O=C(O)/C=C/c1cc(Br)c(Br)c(Br)c1Br: 68
- O=C(Nc1ccc(Cl)cc1)c1ccccc1NCc1ccncc1: 61
- O=C(CCCc1ccc(-c2ccccc2F)cc1)Nc1ccc(O)cc1: 102
- Nc1ncnc2c1c(-c1ccc(Oc3ccccc3)cc1)cn2C1CCCC1: 77
- Cc1cc(C)c(/C=C2\C(=O)Nc3ccccc32)[nH]1: 105
- NC(=O)c1ccc(-c2nc(-c3ccc4c(c3)OCCO4)c(-c3ccccn3)[nH]2)cc1: 93
- CC(C)c1nn(-c2c(Cl)cccc2Cl)c2nc(Cc3ccc(OCCO)cc3)[nH]c(=O)c12: 22
- CC(C)(C)n1nc(Cc2cccc3ccccc23)c2c(N)ncnc21: 42
- O=C1NC(=O)C(c2c[nH]c3ccccc23)=C1c1c[nH]c2ccccc12: 35
- CSc1nc(-c2ccc(F)cc2)c(-c2ccnc(NC(C)c3ccccc3)c2)[nH]1 (configuration not stated): 83
- CC(C)N(CCC(=O)c1ccc2ccccc2c1)Cc1ccccc1: 88
- CN(C)S(=O)(=O)c1ccc2c(c1)/C(=C/c1cc3c([nH]1)CCCC3)C(=O)N2: 87
- N#Cc1c(NC(=O)c2cccc3ccccc23)sc2c1CCCC2: 99
- Cn1c2ccccc2c2c3c(c4c5ccccc5n(CCC#N)c4c21)CNC3=O: 9
- c1ccc(-c2cnc(Nc3ccc(OCCN4CCCC4)cc3)s2)cc1: 21

* * *

Biological target: Calcium/calmodulin-dependent protein kinase type II subunit beta (Homo sapiens) (UniProt Q13554)
Sequence (Q13554 whole entry): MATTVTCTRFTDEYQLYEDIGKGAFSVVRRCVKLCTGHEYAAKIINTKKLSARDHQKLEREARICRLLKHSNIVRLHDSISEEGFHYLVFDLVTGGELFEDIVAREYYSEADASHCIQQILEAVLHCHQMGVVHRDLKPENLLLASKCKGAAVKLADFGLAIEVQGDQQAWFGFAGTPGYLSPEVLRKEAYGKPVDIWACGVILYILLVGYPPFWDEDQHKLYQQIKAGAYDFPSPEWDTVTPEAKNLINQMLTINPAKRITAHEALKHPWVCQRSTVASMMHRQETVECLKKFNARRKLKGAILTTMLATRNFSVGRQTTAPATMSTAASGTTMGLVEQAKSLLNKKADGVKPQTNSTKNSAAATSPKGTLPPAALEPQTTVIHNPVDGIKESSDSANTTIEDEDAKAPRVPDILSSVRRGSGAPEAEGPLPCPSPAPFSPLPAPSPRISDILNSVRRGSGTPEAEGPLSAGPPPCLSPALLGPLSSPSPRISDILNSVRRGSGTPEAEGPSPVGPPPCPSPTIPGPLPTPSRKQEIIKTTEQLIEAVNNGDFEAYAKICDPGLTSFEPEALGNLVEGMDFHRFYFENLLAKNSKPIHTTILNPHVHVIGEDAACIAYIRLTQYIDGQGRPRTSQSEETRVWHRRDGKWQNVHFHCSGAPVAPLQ
Details: at 1 µM
Observation Type: residual activity

* CN([C@@H](Cc1ccc(OS(=O)(=O)c2cccc3cnccc23)cc1)C(=O)N1CCN(c2ccccc2)CC1)S(=O)(=O)c1cccc2cnccc12 | 100%
* CN(C)S(=O)(=O)c1ccc2c(c1)/C(=C/c1cc3c([nH]1)CCCC3)C(=O)N2 | 71%
* O=C1NC(=O)C(c2cn(CCCn3ccnc3)c3ccccc23)=C1Nc1ccccc1 | 77%
* O=c1cc(N2CCOCC2)oc2c1ccc1ccccc12 | 103%
* CC(C)[C@H](CO)Nc1nc(Nc2cc(N)cc(Cl)c2)c2ncn(C(C)C)c2n1 | 92%
* O=C(NC(NC(=S)Nc1ccc(F)c([N+](=O)[O-])c1)C(Cl)(Cl)Cl)C(c1ccccc1)c1ccccc1 (stereo unspecified) | 91%
* O=C1NC(=O)C(c2cn(CCCO)c3ncccc23)=C1c1cnccn1 | 75%
* CC(C)N(CCC(=O)c1ccc2ccccc2c1)Cc1ccccc1 | 88%
* NCCNc1ncc(C(N)=O)c(Nc2cccc(C(F)(F)F)c2)n1 | 73%
* O=C1Nc2ccc(Cl)cc2/C1=C/c1cc(Cl)c(O)c(Cl)c1 | 69%
* O=C1C(Cl)=C(N2C(=O)CCC2=O)C(=O)c2ccccc21 | 90%
* Cn1c2ccccc2c2c3c(c4c5ccccc5n(CCC#N)c4c21)CNC3=O | 11%
* COc1ccc2c(c1)c(C1=C(c3c[nH]c4ccccc34)C(=O)NC1=O)cn2CCCN(C)C | 80%
* O=C(O)/C=C/c1cc(Br)c(Br)c(Br)c1Br | 78%
* CCCCc1c(-c2ccc(OC)cc2)[nH]c2nccnc12 | 82%
* CC(C)c1nn(-c2c(Cl)cccc2Cl)c2nc(Cc3ccc(OCCO)cc3)[nH]c(=O)c12 | 91%
* CCN(CC)CCNC(=O)c1c(C)[nH]c(/C=C2\C(=O)Nc3ccc(Cl)cc32)c1C | 8%
* COc1ccc(Cl)cc1NC(=O)Nc1cc(C)nc2ccccc12 | 88%
* c1ccc(-c2cnc(Nc3ccc(OCCN4CCCC4)cc3)s2)cc1 | 48%
* Nc1ncnc2c1c(-c1ccc(Oc3ccccc3)cc1)cn2C1CCCC1 | 83%
* O=C(Nc1nc2ccccc2n1CCN1CCOCC1)c1cccc([N+](=O)[O-])c1 | 83%

* * *

Target: Insulin-like growth factor 1 receptor (Homo sapiens)
Settings: at 10 µM
Attribute: residual activity
Observation Type: residual activity (%)

- Nc1nc(Nc2ccc(S(N)(=O)=O)cc2)nn1C(=O)c1c(F)cccc1F: 63
- CCCCc1c(-c2ccc(OC)cc2)[nH]c2nccnc12: 51
- O=C1NC(=O)C(c2c[nH]c3ccccc23)=C1c1c[nH]c2ccccc12: 76
- Nc1ncnc2c1c(-c1ccc(Oc3ccccc3)cc1)cn2C1CCCC1: 58
- CC(C)[C@H](CO)Nc1nc(Nc2cc(N)cc(Cl)c2)c2ncn(C(C)C)c2n1: 17
- NC(=O)Nc1sc(-c2ccc(F)cc2)cc1C(N)=O: 19
- CCN(CC)CCNC(=O)c1c(C)[nH]c(/C=C2\C(=O)Nc3ccc(Cl)cc32)c1C: 3
- Nc1ncnc2[nH]nc(Nc3ccc(F)cc3)c12: 112
- O=C1C(Cl)=C(N2C(=O)CCC2=O)C(=O)c2ccccc21: 101
- CC(C)(C)n1nc(Cc2cccc3ccccc23)c2c(N)ncnc21: 73
- Nc1ncnc2c1cnn2-c1ccccc1: 76
- COc1cc2nccc(Oc3ccc(NC(=S)NC(=O)c4ccccc4C)cc3)c2cc1OC: 73
- CCCCc1c(-c2ccc(O)cc2)[nH]c2nccnc12: 66

meta.source: ChEMBL document CHEMBL2218924
